The reported numbers originate from patent US20230295297A1.

# experimental_target: T1, human TREM2 on primary cells (human, UniProt Q9NZC2 19-230)
# T1 construct: also called TREM2 on hDC; hMAC
# T1 sequence: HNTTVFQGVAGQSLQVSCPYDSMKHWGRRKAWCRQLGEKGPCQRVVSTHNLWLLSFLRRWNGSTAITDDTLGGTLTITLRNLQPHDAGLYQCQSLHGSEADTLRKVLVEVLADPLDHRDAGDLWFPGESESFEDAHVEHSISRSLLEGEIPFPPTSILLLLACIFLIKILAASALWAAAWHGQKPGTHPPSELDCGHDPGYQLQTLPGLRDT
# experimental_details: FACS, primary hDC

{"binder": "10A9 (antibody, IgG1, V domains shown, mIgG1) VH: QVQLQQSGAEVVKPGASVKMSCKTSGYPFSNFWITWVKQRPGQGLVWIGDIYPGSDNRNFNERFKTKATLTVDTSSSTAYMHLSSLTSEDSAVYFCAREAYYTNPGFAYWGQGTLVTVSA VL: DVVMTQTPLSLPVSLGDQASISCRSSQTIIHSNGNTYLEWYLRKPGQSPKLLIYKVSNRFCGVPDRFSGSGSGTDFTLKISRVEAEDLGVYYCFQGSHVPYTFGGGTELEIK", "% Positive hDC [%]": 96}
{"binder": "6H2 (antibody, IgG2a, V domains shown, mIgG2a) VH: QVQLQESGPGLVQPSQSLSIICTVSAFSLTNYAVHWIRQSPGKGLEWLGVIWSGGSTAFNAAFISRLNISKDNSKSQVFFKMNSLQSDDTAIYYCATHYYRSTYAFSYWGQGTLVTVSA VL: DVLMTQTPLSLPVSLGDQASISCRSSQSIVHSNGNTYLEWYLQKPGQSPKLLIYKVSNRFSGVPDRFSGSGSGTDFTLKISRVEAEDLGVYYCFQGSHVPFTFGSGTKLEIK", "% Positive hDC [%]": 83.9}
{"binder": "3A2 (antibody, IgG1, V domains shown, mIgG1; variable domains built FR1-HVR1-FR2-HVR2-FR3-HVR3-FR4) VH: QVQLQQSGAELVKPGASVKMSCKTSGYPFSNFWITWVKQRPGQGLVWIGDIYPGSDNSNYNEKFKTKATLTVDTSSSTAYMHLSSLTSEDSAVYFCAREAYYTNPGFAYWGQGTLVTVST VL: DVVMTQTPLSLPVSLGDQASISCRSSQTIIHSNGNTYLEWYLRKPGQSPKLLIYKVSNRFSGVPDRFSGSGSGTDFTLKISRVEAEDLGVYYCFQGSHVPYTFGGGTELEIK", "% Positive hDC [%]": 77}
